# ΔΔG against wild type PPKID4^P listing for each entry below
biological target: T1, wild type CBP KIX (Example 20) (UniProt P45481 586-665, limits assumed); assay: fluorescence polarization
T1 construct: domain: KIX
T1 sequence (P45481 586-665 limits assumed): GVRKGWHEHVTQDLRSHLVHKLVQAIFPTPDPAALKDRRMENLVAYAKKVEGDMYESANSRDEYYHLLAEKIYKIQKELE
Square brackets hold non-standard residues; d marks the D form. * marks the point of attachment. Fluorescein(5-NHCOCH2) = O=C(C*)Nc1ccc2c(c1)C(=O)OC21c2ccc(O)cc2Oc2cc(O)ccc21; pS = N[C@@H](COP(=O)(O)O)C(=O)O
Answer format: numeric, kcal/mol implied, no suffix.

Solved cases below.
{"columns": ["binder", "ΔΔG against wild type PPKID4^P / kcal/mol"],
 "data": [
  ["H-GPSQATYPGDDAPVRRL[pS]FFYILLDLYLDAPGVC(Fluorescein(5-NHCOCH2))-NH2 (designed binder) [PPKID4^P variant P5A]", 0.3],
  ["H-GPSQPTYPGDDAPVRRL[pS]FAYILLDLYLDAPGVC(Fluorescein(5-NHCOCH2))-NH2 (designed binder) [PPKID4^P variant F20A]", 0.85]
]}

Then there is this binder:
Q. Record request: ΔΔG against wild type PPKID4^P value, item H-GPSQPTYAGDDAPVRRL[pS]FFYILLDLYLDAPGVC(Fluorescein(5-NHCOCH2))-NH2 (designed binder) [PPKID4^P variant P8A]
A. 0.33
